- Target entity: His-tagged KRAS G12D protein (Homo sapiens, UniProt P01116, G12D)
- Sequence (P01116 1-188 isoform P01116-2 G12D): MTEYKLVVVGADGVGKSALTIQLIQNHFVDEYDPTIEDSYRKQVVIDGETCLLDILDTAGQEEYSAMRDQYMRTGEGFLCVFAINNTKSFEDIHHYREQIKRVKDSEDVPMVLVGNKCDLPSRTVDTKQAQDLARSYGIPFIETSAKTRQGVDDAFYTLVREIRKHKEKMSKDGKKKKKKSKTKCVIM
- Experiment notes: KRAS G12D TR-FRET Assay
So I've got a bunch of compounds here, and I need their pIC50 values.
In plain terms, pIC50 is the concentration in mol/L turned into minus its base-10 logarithm.

Need pIC50, item `Fc1c(-c2c(Cl)ccc3[nH]ncc23)ccc2c(N3C[C@H]4CC[C@@H](C3)N4)nc(OC[C@@]34CCCN3C[C@H](F)C4)nc12` 7.43

Need pIC50, item `CN1C[C@H](F)C[C@H]1COc1nc(N2C[C@H]3C[C@@H](C2)N3)c2ccc(-c3cc(O)cc4ccccc34)c(F)c2n1` 7.12

Need pIC50, item `CCc1c(F)ccc2cc(O)cc(-c3ccc4c(N5C[C@H]6CC[C@@H](C5)N6)nc(OCC5(O)CCC5)nc4c3F)c12` 8.00
